Origin of values: the Immune Epitope Database (IEDB)

# TEST SYSTEM: HLA-B*18:01
# TEST PROTOCOL: IEDB peptide-MHC binding, purified MHC/competitive/radioactivity; filed as Kd, often an IC50 or EC50 that approximates it; bounds were set here for any values at or beyond the usual limits of such assays
# STUDY CONDITIONS: source organism: Mammarenavirus juninense
REPORTED ENDPOINT: pKd
# pKd: negative log10 of molar concentration; output just the value

Ask: Name the value of pKd reported for AETGSQGVY when tested on HLA-B*18:01.
Result: 5.18

---

# TEST SYSTEM: HLA-B*35:01
# TEST PROTOCOL: IEDB peptide-MHC binding, purified MHC/direct/fluorescence; filed as Kd, often an IC50 or EC50 that approximates it; bounds were set here for any values at or beyond the usual limits of such assays
# STUDY CONDITIONS: source organism: Yersinia pestis KIM10+
REPORTED ENDPOINT: pKd
Please treat pKd as minus the base-10 logarithm of the molar concentration.

Ask: Give the reported pKd for this sequence. STFAASGPF
Result: 7.35

---

# TEST SYSTEM: HLA-A*69:01
# TEST PROTOCOL: IEDB peptide-MHC binding, purified MHC/competitive/fluorescence; filed as Kd, often an IC50 or EC50 that approximates it; bounds were set here for any values at or beyond the usual limits of such assays
# STUDY CONDITIONS: source organism: Rickettsia akari str. Hartford
pKd: −log10 of the molar value.
REPORTED ENDPOINT: pKd

Ask: // fetch pKd; item: FTARIIIFS ; system: HLA-A*69:01
Result: ≤ 4.70

---

# TEST SYSTEM: HLA-B*39:01
# TEST PROTOCOL: IEDB peptide-MHC binding, purified MHC/direct/fluorescence; filed as Kd, often an IC50 or EC50 that approximates it; bounds were set here for any values at or beyond the usual limits of such assays
# STUDY CONDITIONS: source organism: Yersinia pestis KIM10+
REPORTED ENDPOINT: Kd

Ask: Check the records and state Kd for STFAASGPF
Result: ≥ 20 µM

---

# TEST SYSTEM: HLA-B*15:01
# TEST PROTOCOL: IEDB peptide-MHC binding, purified MHC/direct/fluorescence; filed as Kd, often an IC50 or EC50 that approximates it; bounds were set here for any values at or beyond the usual limits of such assays
# STUDY CONDITIONS: source organism: Escherichia coli
REPORTED ENDPOINT: Kd

Ask: Please report Kd for the following sequence: WCRVGRGTI
Result: ≥ 20 µM

---

# TEST SYSTEM: HLA-A*02:01
# TEST PROTOCOL: IEDB peptide-MHC binding, purified MHC/direct/fluorescence; filed as Kd, often an IC50 or EC50 that approximates it; bounds were set here for any values at or beyond the usual limits of such assays
# STUDY CONDITIONS: source organism: Entamoeba histolytica HM-1:IMSS
REPORTED ENDPOINT: Kd (nM)
A number alone suffices; assume nM.

Ask: Give Kd; test system HLA-A*02:01; sequence KLYDSVYLT
Result: 7.6

---

# TEST SYSTEM: HLA-B*27:03
# TEST PROTOCOL: IEDB peptide-MHC binding, purified MHC/competitive/fluorescence; filed as Kd, often an IC50 or EC50 that approximates it; bounds were set here for any values at or beyond the usual limits of such assays
# STUDY CONDITIONS: source organism: Rickettsia akari str. Hartford
REPORTED ENDPOINT: Kd

Ask: Give a short answer stating reported Kd for FTARIIIFS .
Result: ≥ 20 µM

---

# TEST SYSTEM: HLA-A*02:01
# TEST PROTOCOL: IEDB peptide-MHC binding, purified MHC/competitive/radioactivity; filed as Kd, often an IC50 or EC50 that approximates it; bounds were set here for any values at or beyond the usual limits of such assays
# STUDY CONDITIONS: source organism: Dengue virus 1 Nauru/West Pac/1974
REPORTED ENDPOINT: pKd
Please treat pKd as minus the base-10 logarithm of the molar concentration.

Ask: Tell me its pKd given LLFKTSAGV as the entry.
Result: 7.73

---

# TEST SYSTEM: HLA-B*07:02
# TEST PROTOCOL: IEDB peptide-MHC binding, purified MHC/direct/fluorescence; filed as Kd, often an IC50 or EC50 that approximates it; bounds were set here for any values at or beyond the usual limits of such assays
# STUDY CONDITIONS: source organism: Brucella melitensis
REPORTED ENDPOINT: pKd
pKd (log units): -log10 of the concentration in mol/L.

Ask: Quick one: give measured pKd for TPPVDRMAV
Result: 6.54

---

# TEST SYSTEM: HLA-A*11:01
# TEST PROTOCOL: IEDB peptide-MHC binding, purified MHC/competitive/fluorescence; filed as Kd, often an IC50 or EC50 that approximates it; bounds were set here for any values at or beyond the usual limits of such assays
# STUDY CONDITIONS: source organism: Corynebacterium glutamicum ATCC 13032
pKd: −log10 of the molar value.
REPORTED ENDPOINT: pKd

Ask: Quote pKd reported for HLPELIWRS please.
Result: ≤ 4.70

---

# TEST SYSTEM: HLA-B*46:01
# TEST PROTOCOL: IEDB peptide-MHC binding, purified MHC/direct/fluorescence; filed as Kd, often an IC50 or EC50 that approximates it; bounds were set here for any values at or beyond the usual limits of such assays
# STUDY CONDITIONS: source organism: Mycobacterium tuberculosis
REPORTED ENDPOINT: Kd (µM)
Just the number in µM, nothing appended.

Ask: Provide one value: measured Kd of VPRENATAF
Result: 15.9

---

# TEST SYSTEM: HLA-A*31:01
# TEST PROTOCOL: IEDB peptide-MHC binding, purified MHC/competitive/radioactivity; filed as Kd, often an IC50 or EC50 that approximates it; bounds were set here for any values at or beyond the usual limits of such assays
# STUDY CONDITIONS: source organism: Mopeia Lassa virus reassortant 29
REPORTED ENDPOINT: Kd (nM)
Give the value in nM but do not write nM after it.

Ask: Determine from records and report Kd for LTKFVAAALH
Result: 694

---

# TEST SYSTEM: HLA-A*02:03
# TEST PROTOCOL: IEDB peptide-MHC binding, purified MHC/competitive/radioactivity; filed as Kd, often an IC50 or EC50 that approximates it; bounds were set here for any values at or beyond the usual limits of such assays
# STUDY CONDITIONS: source organism: Mammarenavirus juninense
REPORTED ENDPOINT: Kd (nM)
Give your result in nM as a bare value.

Ask: Look up and report measured Kd for this entry: ALNIALVAV
Result: 4.46

---

# TEST SYSTEM: HLA-A*02:01
# TEST PROTOCOL: IEDB peptide-MHC binding, purified MHC/competitive/fluorescence; filed as Kd, often an IC50 or EC50 that approximates it; bounds were set here for any values at or beyond the usual limits of such assays
# STUDY CONDITIONS: source organism: Escherichia coli
REPORTED ENDPOINT: Kd (nM)
Supply the numeric figure in nM, leaving out any unit text.

Ask: Return reported Kd for target or system HLA-A*02:01, item KVHADDIPV .
Result: 15.3

---

# TEST SYSTEM: HLA-B*18:01
# TEST PROTOCOL: IEDB peptide-MHC binding, purified MHC/direct/fluorescence; filed as Kd, often an IC50 or EC50 that approximates it; bounds were set here for any values at or beyond the usual limits of such assays
# STUDY CONDITIONS: source organism: Orthohantavirus andesense
REPORTED ENDPOINT: Kd

Ask: Kindly indicate its recorded Kd. Item: SIKFKRKLM
Result: ≥ 20 µM

---

# TEST SYSTEM: HLA-B*58:01
# TEST PROTOCOL: IEDB peptide-MHC binding, purified MHC/competitive/radioactivity; filed as Kd, often an IC50 or EC50 that approximates it; bounds were set here for any values at or beyond the usual limits of such assays
# STUDY CONDITIONS: source organism: Dengue virus 3 Martinique/1243/1999
REPORTED ENDPOINT: Kd (nM)
Write down the numeric answer in nM and omit the unit.

Ask: Specify reported Kd for the sequence shown: SASSMINGVV
Result: 6380

Ask: Please indicate Kd recorded for QTQRSGVLW
Result: 1.47

Ask: Return reported Kd. Input sequence: GTSLTQKVVI
Result: 194

---

Documented pKd across a set of sequences
# TEST SYSTEM: HLA-A*31:01
# TEST PROTOCOL: IEDB peptide-MHC binding, purified MHC/competitive/radioactivity; filed as Kd, often an IC50 or EC50 that approximates it; bounds were set here for any values at or beyond the usual limits of such assays
# STUDY CONDITIONS: source organism: Dengue virus 2 Jamaica/1409/1983
The value called pKd is obtained by taking minus log10 of the concentration in mol/L.

Ask: Tell me its pKd given MYFHRRDLR as the entry.
Result: 9.86

Ask: Specify reported pKd for the sequence shown: VTHSSAAQR
Result: 7.59

Ask: Please list pKd recorded for the sequence SAKLRWFVER
Result: 7.58

Ask: Determine from records and report pKd for YTIGTTHFQR
Result: 7.35

Ask: Look up pKd of RTLAKEGIKR and report it.
Result: 7.84

Further cases:
Ask: Report pKd, nothing else, for this sequence: TVCYVLTGR
Result: 7.99
